Item-by-item account of BUN
species: Rattus norvegicus; test: Open TG-GATES - Regimen: Daily Repeat; type: toxicity, organism-based, Sprague-Dawley; design: regimen Daily Repeat, gender Male, age 6 weeks; conditions: in vivo, po, 1000 mg/kg, […], tissue Plasma, route gavage, dose level High, time 7 day

compound	u	BUN
CNC(=C[N+](=O)[O-])NCCSCc1ccc(CN(C)C)o1 [RANITIDINE]	mg/dL	16.8
CN/C(=N/CCSCc1nc[nH]c1C)NC#N [CIMETIDINE]	mg/dL	17
CCOc1ccc(NC(C)=O)cc1 [PHENACETIN]	mg/dL	16
Cc1nnc2n1-c1ccc(Cl)cc1C(c1ccccc1Cl)=NC2 [TRIAZOLAM]	mg/dL	15.8
O=C(OC[C@H]1O[C@@H](OC(=O)c2cc(O)c(O)c(OC(=O)c3cc(O)c(O)c(O)c3)c2)[C@H](OC(=O)c2cc(O)c(O)c(OC(=O)c3cc(O)c(O)c(O)c3)c2)[C@@H](OC(=O)c2cc(O)c(O)c(OC(=O)c3cc(O)c(O)c(O)c3)c2)[C@@H]1OC(=O)c1cc(O)c(O)c(OC(=O)c2cc(O)c(O)c(O)c2)c1)c1cc(O)c(O)c(OC(=O)c2cc(O)c(O)c(O)c2)c1 [TANNIC ACID]	mg/dL	16.2
COC(=O)C1=C(C)NC(C)=C(C(=O)OC)C1c1ccccc1[N+](=O)[O-] [NIFEDIPINE]	mg/dL	15
